- assayed target: T1, cynomolgus IL-1 beta (Sino Biological 90010-CNAE) (cynomolgus, UniProt P79182 117-268)
- T1 sequence (looked up): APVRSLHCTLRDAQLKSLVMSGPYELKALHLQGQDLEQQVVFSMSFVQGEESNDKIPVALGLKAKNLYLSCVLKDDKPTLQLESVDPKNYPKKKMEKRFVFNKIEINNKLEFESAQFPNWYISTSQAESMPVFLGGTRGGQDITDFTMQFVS
- protocol details: SPR, Fab captured via anti-Fab antibody, cynomolgus IL-1beta injected, 1:1 Langmuir fit
Reported Kd values follow for various binders
Report the figure in nM without appending any unit label.

Example cases with answers are listed next.
binder	uom	Kd
bispecific anti-VEGF/anti-IL-1beta Fab fragment 1HVL5.15 (Fab, V domains shown) VH: DETLVESGGGLVKPGGSLRLSCAAEGMVFKWNDMSWVRQAPGKGLEWVGSISKKGDHKYLNTKFIGRFTISRDNEKDTLYLQMNSLRAEDTAVYYCAKDVGFFDIWGQGTLVTVSS VL: AIYMHQEPSSLSASVGDRVTITCHGSYWLSSLMAWYQQKPGKAPKLLIYDAKYKHLGVPSRFSGSGSHEDYTLTISSLQPEDFATYYCQQYRYHPYTFGHGTKVEIKR	nM	0.045
bispecific anti-VEGF/anti-IL-1beta Fab fragment 1HVL12.85 (Fab, V domains shown) VH: DEQLVESGGGLVKPGGSLRLSCAAEGMVFKWNDMSWVRQAPGKGLEWVGSISKKGDHKYLNTKFIGRFTISRDNEKDTLYLQMNSLRAEDTAVYYCAKDVGFFDIWGQGTLVTVSS VL: AIYMHQEPSSLSASVGDRVTITCHGSYWLSSLVAWYQQKPGKAPKLLIYDAKYKHLGVPSRFSGSKEDQEFTLTISSLQPEDFATYYCQQYRYHPYTFGHGTKVEIKR	nM	0.02
bispecific anti-VEGF/anti-IL-1beta Fab fragment RO7200394 (Fab, V domains shown, same variable domains as 1HVL12.85; also called R07200394) VH: DEQLVESGGGLVKPGGSLRLSCAAEGMVFKWNDMSWVRQAPGKGLEWVGSISKKGDHKYLNTKFIGRFTISRDNEKDTLYLQMNSLRAEDTAVYYCAKDVGFFDIWGQGTLVTVSS VL: AIYMHQEPSSLSASVGDRVTITCHGSYWLSSLVAWYQQKPGKAPKLLIYDAKYKHLGVPSRFSGSKEDQEFTLTISSLQPEDFATYYCQQYRYHPYTFGHGTKVEIKR	nM	0.027

Consider now this further binder.
Measured Kd of bispecific anti-VEGF/anti-IL-1beta Fab fragment 1HVL2.3 (Fab, V domains shown, First expressed in E. coli TG1, later in HEK293) VH: EQLVESGGGLVKPGGSLRLSCAASGMVFSWNAMSWVRQAPGKGLEWVGSISPKGDHKYLNTKFIGRFTISRDNSKNTLYLQMNSLRAEDTAVYYCAKDIGFFDVWGQGTLVTVSS VL: AIYMHQEPSSLSASVGDRVTITCHGSYWLSNYLAWYQQKPGKAPKLLIYDASYRIIGVPSRFSGSGSHEDYTLTISSLQPEDFATYYCQQYRYHPYTFGHGTKVEIKR : 5.79
